# System: KO-52 cells
# assayRemarks: Proliferation assay, spheroid-like growth, KO-52 (MLL wildtype control cell line)
# Format: cell-based, human
# experimentalSetup: Homo sapiens, 192 h, KO-52 control cells, 8 days, confluence as measure of spheroid size; read-out: spheroid assay_OneTime KO-52 IC50
Kindly apply the following: fulfilled if IC50 is less than 3 µM, not fulfilled in every other case.

[
  {
    "compound": "CC(C)C([C@H]1C[C@@H](N2CCC3(CCO3)CC2)C1)N1CC2(CCN(c3ncnnc3Oc3ccc(F)cc3-c3cncnc3C3CC3)C2)C1 (some centres unmarked) [Compound 327]",
    "classification": "not fulfilled"
  },
  {
    "compound": "CC(C)[C@H]([C@H]1C[C@@H](N2C[C@@H](O)C3(CCC3)C2)C1)N1CC2(CCN(c3ncnnc3Oc3ccc(F)cc3-c3cncnc3C3CC3)C2)C1 (single isomer, unassigned) [Compound 215]",
    "classification": "not fulfilled"
  },
  {
    "compound": "CC(C)[C@H]([C@H]1C[C@@H](N2C[C@H](O)C3(CCC3)C2)C1)N1CC2(CCN(c3ncnnc3Oc3ccc(F)cc3-c3cncnc3C3CC3)C2)C1 (single isomer, unassigned) [Compound 214]",
    "classification": "not fulfilled"
  },
  {
    "compound": "CC(C)C([C@H]1C[C@@H](N2CCOCC2)C1)N1CC2(CCN(c3ncnnc3Oc3ccc(F)cc3-c3cncnc3C3CC3)C2)C1 (some centres unmarked) [Compound 120]",
    "classification": "not fulfilled"
  },
  {
    "compound": "CC(C)C([C@H]1C[C@@H](NC(=O)C2CC2)C1)N1CC2(CCN(c3ncnnc3Oc3ccc(F)cc3-c3cnncc3C3CC3)C2)C1 (some centres unmarked) [Compound 184]",
    "classification": "fulfilled"
  },
  {
    "compound": "CC(C)C([C@H]1C[C@@H](N2CCC(O)CC2)C1)N1CC2(CCN(c3ncnnc3Oc3ccc(F)cc3-c3cncnc3C3CC3)C2)C1 (some centres unmarked) [Compound 121]",
    "classification": "fulfilled"
  },
  {
    "compound": "CC(C)C([C@H]1C[C@H](N2CC3(COC3)C2)C1)N1CC2(CCN(c3ncnnc3Oc3ccc(F)cc3-c3ncc(C#N)cc3C3CC3)C2)C1 (some centres unmarked) [Compound 141]",
    "classification": "not fulfilled"
  },
  {
    "compound": "CC(C)[C@H]([C@H]1C[C@H](N2CC3(COC3)C2)C1)N1CC2(CCN(c3ncnnc3Oc3ccc(F)cc3-c3ncc(C#N)cc3C3CC3)C2)C1 (single isomer, unassigned) [Compound 95]",
    "classification": "not fulfilled"
  },
  {
    "compound": "CC(C)[C@H]([C@H]1C[C@@H](N2CC[C@H](F)C2)C1)N1CC2(CCN(c3ncnnc3Oc3ccc(F)cc3-c3cncnc3C3CC3)C2)C1 (single isomer, unassigned) [Compound 238]",
    "classification": "not fulfilled"
  },
  {
    "compound": "CC(C)C(C1CCN(CC2COC2)CC1)N1CC2(CCN(c3ncnnc3Oc3ccc(F)cc3-c3ncncc3C3CC3)C2)C1 (centres unmarked) [Compound 203]",
    "classification": "fulfilled"
  },
  {
    "compound": "CC(C)[C@H]([C@H]1C[C@H](N2CCC3(C2)CS(=O)(=O)C3)C1)N1CC2(CCN(c3ncnnc3Oc3ccc(F)cc3-c3cncnc3C3CC3)C2)C1 (single isomer, unassigned) [Compound 204]",
    "classification": "not fulfilled"
  }
]
